Entries and their measured Ratio IC50 (comp./990) in Screening no. 3 follow.
target: AKAP18delta-RIIalpha interaction (GST-AKAP18delta binding to plate-bound PKA-RIIalpha) (Rattus norvegicus, UniProt P12368+Q6JP77); assay: ELISA for quantitative detection of protein-protein binding between PKA-RIIalpha and GST-AKAP18delta (library screening, validation, IC50)
Sequence (P12368 2-401): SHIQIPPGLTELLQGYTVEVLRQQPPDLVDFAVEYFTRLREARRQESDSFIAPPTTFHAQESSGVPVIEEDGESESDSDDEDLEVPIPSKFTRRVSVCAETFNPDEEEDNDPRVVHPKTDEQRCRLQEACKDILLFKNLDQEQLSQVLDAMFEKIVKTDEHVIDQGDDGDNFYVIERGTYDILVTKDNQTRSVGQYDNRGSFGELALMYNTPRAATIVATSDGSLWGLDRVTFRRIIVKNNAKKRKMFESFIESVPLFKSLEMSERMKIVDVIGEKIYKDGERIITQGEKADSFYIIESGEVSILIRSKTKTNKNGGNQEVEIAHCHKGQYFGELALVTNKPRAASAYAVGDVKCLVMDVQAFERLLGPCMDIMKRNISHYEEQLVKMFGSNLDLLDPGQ
Sequence (Q6JP77 whole entry): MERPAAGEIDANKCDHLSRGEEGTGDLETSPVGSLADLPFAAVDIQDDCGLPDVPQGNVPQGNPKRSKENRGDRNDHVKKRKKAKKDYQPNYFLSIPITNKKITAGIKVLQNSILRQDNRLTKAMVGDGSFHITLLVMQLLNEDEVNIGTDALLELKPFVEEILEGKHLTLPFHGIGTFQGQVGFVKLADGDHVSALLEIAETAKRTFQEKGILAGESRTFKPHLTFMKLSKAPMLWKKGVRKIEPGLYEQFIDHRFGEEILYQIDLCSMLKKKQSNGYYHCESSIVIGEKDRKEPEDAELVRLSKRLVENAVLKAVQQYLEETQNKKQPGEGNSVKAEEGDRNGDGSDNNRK
measured property: Ratio IC50 (comp./990) in Screening no. 3

>>> measured_value("N=C(NCc1ccccc1)SCc1cccc2ccccc12 [SM53]")
1.13
>>> measured_value("c1ccc2c(CN/C(=N\\C3CCCCC3)SCc3cccc4ccccc34)cccc2c1 [JG25]")
0.26
>>> measured_value("CC(C)(C)/N=C(\\NCc1cccc2ccccc12)SCc1cccc2ccccc12 [JG27]")
1.03
>>> measured_value("CC(C)(C)/N=C(\\NCc1ccccc1)SCc1cccc2ccccc12 [JG20]")
0.74
>>> measured_value("C/N=C(/NC)SCc1cccc2ccccc12 [SM25]")
0.68

###

target: AKAP18delta-RIIalpha interaction (GST-AKAP18delta binding to plate-bound PKA-RIIalpha) (Rattus norvegicus, UniProt P12368+Q6JP77); test: ELISA for quantitative detection of protein-protein binding between PKA-RIIalpha and GST-AKAP18delta (library screening, validation, IC50)
Heads up, the class ranges for Ratio IC50 (comp./990) in Screening no. 2 are low interval (below 2), middle interval (2 to below 30), high interval (30 or more)

>>> assigned_label("C/N=C(/NCc1ccccc1)SCc1ccc2ccccc2c1")
"high interval"
>>> assigned_label("N=C(NCc1ccccc1)SCc1cccc2ccccc12")
"middle interval"
>>> assigned_label("N=C(NN)SCc1cccc2ccccc12")
"middle interval"
>>> assigned_label("c1ccc2c(C/N=C(\\NC3CCCCC3)SCc3cccc4ccccc34)cccc2c1")
"low interval"
>>> assigned_label("C/N=C(/NC)SCc1cccc2ccccc12")
"low interval"
>>> assigned_label("S=C(NCc1cccc2ccccc12)NC1CCCCC1")
"high interval"
>>> assigned_label("C/N=C(/NCc1ccccc1)SCc1cccc2ccccc12")
"low interval"
>>> assigned_label("C/N=C(/NC(C)c1ccccc1)SCc1cccc2ccccc12 (stereo not shown)")
"low interval"
>>> assigned_label("CNC(=S)NCc1cccc2ccccc12")
"middle interval"
>>> assigned_label("S=C(NCCN1CCCCC1)Nc1cccc2ccccc12")
"high interval"
>>> assigned_label("C/N=C(/NCCCc1ccccc1)SCc1ccc2ccccc2c1")
"high interval"
>>> assigned_label("CN/C(=N\\Cc1cccc2ccccc12)SCc1cccc2ccccc12")
"low interval"

###

target: AKAP18delta-RIIalpha interaction (GST-AKAP18delta binding to plate-bound PKA-RIIalpha) (Rattus norvegicus, UniProt P12368+Q6JP77); assay: ELISA for quantitative detection of protein-protein binding between PKA-RIIalpha and GST-AKAP18delta (library screening, validation, IC50)
Entries and their measured Ratio IC50 (comp./990) in Screening no. 2 follow.
measured property: Ratio IC50 (comp./990) in Screening no. 2

>>> measured_value("C/N=C(/NCCCc1ccccc1)SCc1cccc2ccccc12")
0.51
>>> measured_value("CCNC(=N)SCc1cccc2ccccc12")
6.43
>>> measured_value("C/N=C(/NC1=NCCS1)SCc1cccc2ccccc12")
0.14
>>> measured_value("N=C(N)NCc1cccc2ccccc12")
88.35
>>> measured_value("C/N=C(/NC(C)c1ccccc1)SCc1ccc2ccccc2c1 (stereo not drawn)")
79.84
>>> measured_value("S=C(NCCN1CCCCC1)NCc1cccc2ccccc12")
592.04

###

target: AKAP18delta-RIIalpha interaction (GST-AKAP18delta binding to plate-bound PKA-RIIalpha) (Rattus norvegicus, UniProt P12368+Q6JP77); assay: ELISA for quantitative detection of protein-protein binding between PKA-RIIalpha and GST-AKAP18delta (library screening, validation, IC50)
Each entry gets n if its Ratio IC50 (comp./990) in Screening no. 3 stays under 1, and y if its Ratio IC50 (comp./990) in Screening no. 3 is 1 or above.

>>> assigned_label("C/N=C(/NC1=NCCS1)SCc1cccc2ccccc12 [SM65]")
"n"
>>> assigned_label("CN/C(=N\\Cc1cccc2ccccc12)SCc1cccc2ccccc12 [SM61]")
"n"
>>> assigned_label("c1ccc2c(C/N=C(\\NC3CCCCC3)SCc3cccc4ccccc34)cccc2c1 [SM63]")
"y"
>>> assigned_label("CN/C(=N\\c1cccc2cc3ccccc3cc12)SCc1cccc2ccccc12 [JG31]")
"y"
>>> assigned_label("CC(C)(C)/N=C(\\NC1=NCCS1)SCc1cccc2ccccc12 [JG21]")
"y"
>>> assigned_label("CC(C)/N=C(\\NCc1cccc2ccccc12)SCc1cccc2ccccc12 [JG26]")
"n"
>>> assigned_label("C/N=C(/NCCCc1ccccc1)SCc1cccc2ccccc12 [SM67]")
"y"
>>> assigned_label("c1ccc(C/N=C(\\NCc2cccc3ccccc23)SCc2cccc3ccccc23)cc1 [JG28]")
"n"
>>> assigned_label("C/N=C(/NCc1ccccc1)SCc1cccc2ccccc12 [SM71]")
"n"

###

tested on: vasopressin (AVP)-dependent redistribution of the aquaporin-2 (AQP2) water channel in renal principal cells (IMCD cells); assay: AVP-induced redistribution of AQP2 in primarily cultured IMCD cells (immunofluorescence, laser scanning microscope); format: cell-based, rat; conditions: FIG. 18 and 21
measured property: Effect on AVP-induced redistribution of AQP2

>>> measured_value("Nc1cc(Cc2ccc(O)c(N)c2)ccc1O")
"no influence"
>>> measured_value("C/N=C(/NC1=NCCS1)SCc1cccc2ccccc12")
"no influence"
